Tested on: A549
METHOD SUMMARY: Cytotoxicity against human A549 cells after 48 hrs by MTT assay
Type: functional, cell-based
CONDITION DESCRIPTION: A549, 48 h
OUTCOME MEASURE: IC50 (µg/mL)

1) CC(C)=CCC[C@](C)(O)[C@H]1CC[C@]2(C)[C@@H]1[C@H](O)C[C@@H]1[C@@]3(C)C[C@@H](O)[C@H](O[C@@H]4O[C@H](CO)[C@@H](O)[C@H](O)[C@H]4O[C@@H]4O[C@H](CO)[C@@H](O)[C@H](O)[C@H]4O)C(C)(C)[C@@H]3CC[C@]12C: 34.9
2) CC(C)=CCC[C@@](C)(O)[C@H]1CC[C@]2(C)[C@@H]1[C@H](O)C[C@@H]1[C@@]3(C)C[C@@H](O)[C@H](O[C@@H]4O[C@H](CO)[C@@H](O)[C@H](O)[C@H]4O[C@@H]4O[C@H](CO)[C@@H](O)[C@H](O)[C@H]4O)C(C)(C)[C@@H]3CC[C@]12C: 51
3) CC(C)=CCC[C@](C)(O[C@@H]1O[C@H](CO[C@@H]2OC[C@@H](O)[C@H](O)[C@H]2O)[C@@H](O)[C@H](O)[C@H]1O)[C@H]1CC[C@]2(C)[C@@H]1[C@H](O)C[C@@H]1[C@@]3(C)C[C@@H](O)[C@H](O[C@@H]4O[C@H](CO)[C@@H](O)[C@H](O)[C@H]4O[C@@H]4O[C@H](CO)[C@@H](O)[C@H](O)[C@H]4O)C(C)(C)[C@@H]3CC[C@]12C: 106
4) CC(C)=CCC[C@](C)(O)[C@H]1CC[C@]2(C)[C@@H]1[C@H](O)C[C@@H]1[C@@]3(C)CC[C@H](O[C@@H]4O[C@H](CO)[C@@H](O)[C@H](O)[C@H]4O[C@@H]4O[C@H](CO)[C@@H](O)[C@H](O)[C@H]4O)C(C)(C)[C@@H]3CC[C@]12C: 55.4
